Quick reference: TGI of the listed items.
Tested on: LXFL 529 NSCLC
Assay: NCI tumour cell line growth inhibition, 48 h

N#Cc1ccc(N=Cc2c([O-])ccc3ccccc23)cc1.[C-]#[O+].[C-]#[O+].[Ir]: 4.32 µM
CC(NC(C)(C)C)C(=O)c1cccc(Cl)c1 (stereo not given): > 100 µM
COc1cc2c(cc1OC)C1(c3ccc(Cl)cc3)ON=C(c3ccccc3)N1CS2 (stereo not given): > 100 µM
COc1cc(-c2cc(-c3cc([N+](=O)[O-])c(/C=N/NC(=O)c4ccncc4)o3)ccc2OC)ccc1C: > 100 µM
CC1(C)OCC(C(O)C2OC(C)(C)OC2/C=N\O)O1 (stereo not given): > 100 µM

# input Item Cc1cc2c(c(C(=O)O)c1C)-c1cccc(F)c1C2=O : provide TGI
# output > 100 µM

# input Item CC1CN1c1c(C(=O)/C=C/c2ccccc2)c(-c2ccccc2)nn(C)c1=O (stereo not given) : provide TGI
# output 28.9 µM

# input Item CCOC(=O)C(=O)Nc1cc(Cl)ccc1Cl : provide TGI
# output > 100 µM

# input Item CCCCCCCCCCCCCP(=O)(O)NCC(N)=O : provide TGI
# output > 100 µM

# input Item [N-]=[N+]=C1C(=O)C2CC3CC(C2)CC1C3 : provide TGI
# output > 100 µM

# input Item Cc1ccc(CC(C)N)cc1 (stereo not given) : provide TGI
# output > 100 µM

# input Item COc1ccc(C=O)c(NC(=O)C(C)C)c1 : provide TGI
# output > 100 µM

# input Item N#C/C(=C\c1c[nH]c2ccccc12)C(=O)c1ccc(O)c(O)c1 : provide TGI
# output > 100 µM

# input Item CN(C)CCC(/C=C/c1ccccc1)=N\Nc1ccc(Cl)cc1Cl : provide TGI
# output 22.8 µM

# input Item Fc1cccc(C2SCc3nc4ccccc4n32)c1F (stereo not given) : provide TGI
# output > 100 µM

###

System: SF-539 CNS
Experiment: NCI tumour cell line growth inhibition, 48 h
MEASURED METRIC: GI50

// below: answered molecules
C#CCOc1cccc(Nc2ncnc3c(NC(=O)CCl)cccc23)c1: 16600 nM
Nc1ccc(-c2nc3ccccc3[nH]2)c2ccccc12: 3110 nM
CN(CCCCCl)P(=O)(OCCS(=O)(=O)CC(NC(=O)CCC(N)C(=O)O)C(=O)NC(C(=O)O)c1ccccc1)OCC1OC(n2cc(F)c(=O)[nH]c2=O)CC1O (stereo not drawn): < 10.5 nM
Cc1nc2ccccc2c(/C=C/c2ccc(Br)cc2)c1C(=O)/C=C/c1ccccc1: 1760 nM
O=C(Nc1cccc(Nc2ncc(Br)c(NCCc3cnc[nH]3)n2)c1)N1CCCC1: 897 nM
COc1cc2c(c(OC)c1OC)-c1ccc(SC)c(=O)cc1[C@@H](NC1OC(CO)C(O)C(O)C1O)CC2 (stereo partly drawn): 24.3 nM
COC1O[C@@H]2C[C@H]3C(C)(C)CCC[C@]3(C)C3=CCCC1[C@@]32C (stereo partly drawn): > 100000 nM

From here, focus on the item given below.
# input Item CC1OC(O[C@H]2/C=C/C=C/C=C/C=C/C=C/C=C/C=C/[C@H](C)[C@@H](O)[C@@H](C)[C@H](C)OC(=O)CC(O)CC(O)CCC(O)C(O)CC(O)C[C@]3(O)C[C@H](O)C(C(=O)O)C(C2)O3)C(O)[C@H](N)C1O (stereo partly drawn) : provide GI50
# output 2920 nM

###

Test system: K-562 leukemia
Assay: NCI tumour cell line growth inhibition, 48 h; in the data active = GI50 below about 0.43 µM; inactive = the rest
Your response should consist of one outcome taken from active, inactive

COc1cc2c(c(OC)c1OC)-c1ccc(SC)c(=O)cc1[C@@H](NC1OC(CO)C(O)C(O)C1O)CC2 (some centres undefined): active
O=[N+]([O-])c1cc(S(=O)(=O)Oc2ccccc2)ccc1Cl: inactive
CCN(CCO)CC(C)Nc1ccc([N+](=O)[O-])c2sc3ccccc3c(=O)c12 (centres undefined): inactive
COc1ccc(/C=N/NC(=O)Cn2c(-c3ccc(S(C)(=O)=O)cc3)nc3cc(Cl)ccc32)cc1: active
CC(C)(C)c1ccc(C(=O)Nc2sc3c(c2C(N)=O)CCC(=O)C3)cc1: active
C[C@@H]1O[C@@H](OC[C@H]2O[C@@H](OCCc3ccc(O)c(O)c3)[C@H](O)[C@@H](O)[C@@H]2OC(=O)/C=C/c2ccc(O)c(O)c2)[C@H](O)[C@H](O)[C@H]1O: inactive
BrCc1ccc(CBr)cc1: inactive
CC(=O)c1c(C(F)(F)F)n([O-])c2ccc(C)cc2[n+]1=O: inactive

Could you now look at the following compound, please?
# input Which result was noted for this compound in the test: Cn1cc(-c2nonc2-c2cn(C)c3ccccc23)c2ccccc21
# output active

###

System: RXF 393 renal
Test: NCI tumour cell line growth inhibition, 48 h
MEASURED METRIC: TGI (µM)
The response must be a number in µM with no trailing unit.

c1ccc(P(=Nc2ccccc2N=P(c2ccccc2)(c2ccccc2)c2ccccc2)(c2ccccc2)c2ccccc2)cc1: 9

# input Item Cc1cccc(NC(=O)c2sc3nc4c(cc3c2N)CN(Cc2ccccc2)CC4)c1C : provide TGI
# output 2.11

###

Tested on: HCT-116 colon
Test: NCI tumour cell line growth inhibition, 48 h
MEASURED METRIC: TGI (µM)
The response must be a number in µM with no trailing unit.

CC1(C)CCC[C@]2(C)[C@@H](C=O)C(C=O)=CC[C@@H]12: 83.4

From here, focus on the item given below.
# input Item COc1ccc(/C=C2\CN(C)C/C(=C\c3ccc(OC)c(OC)c3OC)C2=O)c(OC)c1OC : provide TGI
# output 0.196

###

System: MDA-MB-435
Your response should consist of one outcome taken from true (1) (active), false (0) (inactive)

COc1ccc(OC)c(Cn2cc3c(c2)-c2oncc2CC3)c1: true (1)
CN1CCC(n2cnc(-c3ccc(F)cc3)c2-c2ccnc(N)n2)CC1: false (0)
CCN1C(=O)N(CC)C2C1NN=c1s/c(=C\c3ccccc3Br)c(=O)n12 (stereo unspecified): true (1)
CCN1C(=O)N(CC)C2C1NN=c1s/c(=C3\C(=O)N(CCc4ccccc4)c4ccccc43)c(=O)n12 (stereo unspecified): true (1)
C[C@@H]1O[C@@H](OC[C@H]2O[C@@H](OCCc3ccc(O)c(O)c3)[C@H](O)[C@@H](O)[C@@H]2OC(=O)/C=C/c2ccc(O)c(O)c2)[C@H](O)[C@H](O)[C@H]1O: false (0)

# input Which result was noted for this compound in the test: C[C@@H]1O[C@@H](O[C@H]2CC[C@@]3(C)[C@H](CCC4[C@@H]3C(O)C[C@]3(C)[C@@H](c5ccc(=O)oc5)CC[C@]43O)C2)[C@H](O)[C@H](O)[C@H]1O (stereo partly specified)
# output true (1)

###

Test system: HCC-2998 colon
Assay: NCI tumour cell line growth inhibition, 48 h
MEASURED METRIC: TGI

// below: answered molecules
COc1ccc(OC)c(C2SCC(=O)N2NC(=O)C(O)c2ccccc2)c1 (configuration not stated): > 100 µM
CCCCCCN(N)C(=O)CC#N: > 100 µM
FC(F)(F)c1ccc2nc(Sc3ccccn3)cnc2c1: 38.3 µM

# input Item COC(CN1C=C(Sc2ccccc2)CC1)OC : provide TGI
# output > 100 µM

# input Item c1ccc(P(=Nc2ccccc2N=P(c2ccccc2)(c2ccccc2)c2ccccc2)(c2ccccc2)c2ccccc2)cc1 : provide TGI
# output 12.8 µM

# input Item COc1ccc(CSc2ccccc2Cn2cccc2)cc1OC : provide TGI
# output > 100 µM

# input Item Cc1cccc(NC(=O)c2sc3nc4c(cc3c2N)CN(Cc2ccccc2)CC4)c1C : provide TGI
# output > 50 µM

# input Item COc1cc(C(c2ccc3c(c2)OCO3)N2C(=O)CCC2C(=O)O)cc(OC)c1OC (configuration not stated) : provide TGI
# output > 100 µM

###

System: SW-620 colon
Experiment: NCI tumour cell line growth inhibition, 48 h; in the data active = GI50 below about 0.43 µM; inactive = the rest
Your response should consist of one outcome taken from active, inactive

# input Which result was noted for this compound in the test: CCN(Cc1ccc(Cl)s1)c1ccc(CO)c(Cl)c1
# output inactive

# input Which result was noted for this compound in the test: COc1cc2c(c(OC)c1OC)-c1ccc(SC)c(=O)cc1[C@@H](NC1OC(CO)C(O)C(O)C1O)CC2 (stereo not given in full)
# output active

###

Test system: COLO 205 colon
Experiment: NCI tumour cell line growth inhibition, 48 h
MEASURED METRIC: TGI (µM)
The response must be a number in µM with no trailing unit.

CC(C)(CC(O)C#N)/[N+]([O-])=[N+](\[O-])C(C)(C)CC(O)C#N (stereo not drawn): 31.7
CCN1C(=O)N(CC)C2C1NN=c1s/c(=C3\C(=O)N(CCc4ccccc4)c4ccccc43)c(=O)n12 (stereo not drawn): 1.8
C[C@@H]1O[C@@H](O[C@H]2CC[C@@]3(C)[C@H](CCC4[C@@H]3C(O)C[C@]3(C)[C@@H](c5ccc(=O)oc5)CC[C@]43O)C2)[C@H](O)[C@H](O)[C@H]1O (stereo partly drawn): 0.013

From here, focus on the item given below.
# input Item CC1=CC(=O)C(O)C2(C)C1CC(O)C13COC4(C)C(OC(=O)C41)C(O)C23 (stereo not drawn) : provide TGI
# output 77.1
